Overview of reported Ratio EC50 across a group of compounds:
- Target Or Test System: Vasopressin V1a/V2 (Homo sapiens) (UniProt P30518+P37288)
- Sequence (P30518 whole entry, looked up): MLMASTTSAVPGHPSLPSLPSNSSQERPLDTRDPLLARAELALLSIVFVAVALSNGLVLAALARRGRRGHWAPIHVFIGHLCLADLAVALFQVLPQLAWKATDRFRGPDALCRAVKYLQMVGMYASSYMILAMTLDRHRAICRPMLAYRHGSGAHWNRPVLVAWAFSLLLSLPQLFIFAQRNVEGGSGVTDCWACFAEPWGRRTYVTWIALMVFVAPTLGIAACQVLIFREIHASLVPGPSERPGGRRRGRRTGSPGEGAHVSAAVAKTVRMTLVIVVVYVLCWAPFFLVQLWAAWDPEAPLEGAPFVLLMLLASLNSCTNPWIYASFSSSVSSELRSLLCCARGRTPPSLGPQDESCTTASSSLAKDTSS
- Sequence (P37288 whole entry, looked up): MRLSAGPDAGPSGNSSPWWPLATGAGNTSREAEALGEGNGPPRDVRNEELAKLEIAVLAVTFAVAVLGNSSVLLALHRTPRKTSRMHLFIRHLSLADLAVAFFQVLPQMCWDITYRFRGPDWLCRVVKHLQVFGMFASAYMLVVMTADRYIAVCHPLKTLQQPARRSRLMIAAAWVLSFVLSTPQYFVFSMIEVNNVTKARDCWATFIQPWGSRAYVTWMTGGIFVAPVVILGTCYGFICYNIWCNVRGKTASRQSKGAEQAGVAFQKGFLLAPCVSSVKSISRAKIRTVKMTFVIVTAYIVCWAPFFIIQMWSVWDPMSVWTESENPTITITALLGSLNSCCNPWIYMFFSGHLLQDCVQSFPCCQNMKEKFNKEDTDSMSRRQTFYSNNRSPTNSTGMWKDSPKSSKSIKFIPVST
- Assay Overview: Selectivity ratio of EC50 for human vasopressin V2 receptor to EC50 for human vasopressin V1a receptor
Bridge positions count the residues as written; N and C are the ends. Square brackets hold non-standard residues; d marks the D form. Peptide text beside a SMILES is read from it. * marks the point of attachment. Ala(cPent) = N[C@@H](CC1CCCC1)C(=O)O; Orn(iPr) = CC(C)NCCC[C@H](N)C(=O)O; Cha = N[C@@H](CC1CCCCC1)C(=O)O; Orn = NCCC[C@H](N)C(=O)O; X2 = CC(O)CN*
Measure Name: Ratio EC50

{"Compound": "CC[C@H](C)[C@@H]1NC(=O)[C@H](CC2CCCCC2)NC(=O)[C@@H](N)CSSC[C@@H](C(=O)N2CCC[C@H]2C(=O)N[C@@H](CCCNC(C)C)C(=O)NCC(N)=O)NC(=O)[C@H](CC(N)=O)NC(=O)[C@H](CC(N)=O)NC1=O (H-C[Cha]INNCP[Orn(iPr)]G-NH2; disulfide 1-6)", "Target Or Test System": "Vasopressin V1a/V2 (Homo sapiens) (UniProt P30518+P37288)", "Assay Result": 690}
{"Compound": "CC[C@H](C)[C@@H]1NC(=O)[C@H](Cc2ccccc2)NC(=O)[C@@H](N)CSSC[C@@H](C(=O)N2CCC[C@H]2C(=O)N[C@@H](CCCN)C(=O)NCC(N)=O)NC(=O)[C@H](CC(N)=O)NC(=O)[C@H](CC(=O)NCC(C)O)NC1=O (stereo partly drawn) (H-CFID(X2)NCP[Orn]G-NH2; disulfide 1-6)", "Target Or Test System": "Vasopressin V1a/V2 (Homo sapiens) (UniProt P30518+P37288)", "Assay Result": "> 1900"}
{"Compound": "CC[C@H](C)[C@@H]1NC(=O)[C@H](CC2CCCC2)NC(=O)[C@@H](N)CSSC[C@@H](C(=O)N2CCC[C@H]2C(=O)N[C@@H](CCCN)C(=O)NCC(N)=O)NC(=O)[C@H](CC(N)=O)NC(=O)[C@H](CC(N)=O)NC1=O (H-C[Ala(cPent)]INNCP[Orn]G-NH2; disulfide 1-6)", "Target Or Test System": "Vasopressin V1a/V2 (Homo sapiens) (UniProt P30518+P37288)", "Assay Result": "> 1200"}

###

- Target Or Test System: Vasopressin V1a/V2 (Homo sapiens) (UniProt P30518+P37288)
- Assay Overview: Selectivity ratio of EC50 for human vasopressin V2 receptor to EC50 for human vasopressin V1a receptor
Bridge positions count the residues as written; N and C are the ends. Square brackets hold non-standard residues; d marks the D form. Peptide text beside a SMILES is read from it. * marks the point of attachment. Orn = NCCC[C@H](N)C(=O)O; NHCH2CH2OH = OCCN*

{"Compound": "CC[C@H](C)[C@@H]1NC(=O)[C@H](Cc2ccccc2)NC(=O)[C@@H](N)CSSC[C@@H](C(=O)N2CCC[C@H]2C(=O)N[C@@H](CCCN)C(=O)NCC(N)=O)NC(=O)[C@H](CC(N)=O)NC(=O)[C@H](CC(=O)NC)NC1=O (H-CFID(NHMe)NCP[Orn]G-NH2; disulfide 1-6)", "Ratio EC50": "> 2700"}
{"Compound": "CC[C@H](C)[C@@H]1NC(=O)[C@H](Cc2ccccc2)NC(=O)[C@@H](N)CSSC[C@@H](C(=O)N2CCC[C@H]2C(=O)N[C@@H](CCCN)C(=O)NCC(N)=O)NC(=O)[C@H](CC(N)=O)NC(=O)[C@H](CC(N)=O)NC1=O (H-CFINNCP[Orn]G-NH2; disulfide 1-6)", "Ratio EC50": "> 7100"}
{"Compound": "CC[C@H](C)[C@@H]1NC(=O)[C@H](Cc2ccccc2)NC(=O)[C@@H](N)CSSC[C@@H](C(=O)N2CCC[C@H]2C(=O)N[C@@H](CCCN)C(=O)NCC(N)=O)NC(=O)[C@H](CC(N)=O)NC(=O)[C@H](CC(=O)NCCO)NC1=O (H-CFID(NHCH2CH2OH)NCP[Orn]G-NH2; disulfide 1-6)", "Ratio EC50": "> 1200"}
